system: NCI-H23; assay: NCI tumour cell line growth inhibition, 48 h
The source made the active and inactive calls. Rule as the data show it: active = GI50 up to about 1.1 µM and inactive = higher.
Your answer must be one of the following: yes = active, no = inactive

Look over these answered cases.
compound: O=P(Nc1ccc(Cl)cc1)(Oc1ccccc1)N(CCCl)CCCl (stereo not given)
label_value: no
--
compound: COc1ccc(OC)c(-c2cc(=O)c3c(OC)c(OC)c(OC)c(OC)c3o2)c1
label_value: no
--
compound: COCN(C)c1nc(N(C)C)nc(N(C)C)n1
label_value: no
--
compound: CC(=O)O[C@H]1CC[C@@]2(C)C(=CC[C@@H]3[C@@H]2CC[C@]2(C)c4nc(Cl)ccc4C[C@@H]32)C1
label_value: yes
--
compound: O=S1(=O)c2ccccc2NC(=S)CC1c1ccccc1 (stereo not given)
label_value: no
--
compound: COc1cnc2cc(C(=O)O)c3ccccc3c2c1
label_value: no

Just curious, what result did C/C(CC(O)(/C=N/O)c1ccccc1)=N/O (stereo not given) get here?
no

Just curious, what result did `O=C1C(O)=C(CN(CCCl)CCCl)C(=O)c2ccccc21` get here?
no

Just curious, what result did `NC(=O)C(=O)CC(=O)c1ccccc1NC1=CC(=O)C(=O)c2ccccc21` get here?
no

Just curious, what result did `COC(=O)c1c([N+](=O)[O-])ncn1[C@H]1OC[C@@H](OC(C)=O)[C@@H](OC(C)=O)[C@@H]1OC(C)=O` get here?
no

###

test system: COLO 205; assay: NCI tumour cell line growth inhibition, 48 h
Calls of active or inactive are those of the source. Cut-off read from the data, not from the text of the source: active = GI50 up to about 1.1 µM and inactive = higher.
Reported GI50 values are given for each entry in this list.

Entry under test: `NC(=O)C(=O)CC(=O)c1ccccc1NC1=CC(=O)C(=O)c2ccccc21` . Its GI50 was > 100 µM (inactive)

Entry under test: CN(C)C1(N(C)C)Oc2c(c(=O)n(C)c(=O)n2C)C(c2ccccc2Br)C1(F)F (centres undefined) . Its GI50 was > 100 µM (inactive)

Entry under test: `Cc1ccc(Nc2nc(C)c(C(/C=C/c3ccc(/C=C/C(=N/NC(=O)C[n+]4ccccc4)c4sc(Nc5ccc(C)cc5[N+](=O)[O-])nc4C)cc3)=N\NC(=O)C[n+]3ccccc3)s2)c([N+](=O)[O-])c1` . Its GI50 was > 100 µM (inactive)

Entry under test: O=C1C2C3C=CC(C2C(=O)N1CN1CCOCC1)C1C2C(=O)N(CN4CCOCC4)C(=O)C2C31 (centres undefined) . Its GI50 was > 43 µM (inactive)

###

test system: Hs-578T; experiment: NCI tumour cell line growth inhibition, 48 h
Activity calls are given as the source filed them. No stated cut-off is given here; in the data, active = GI50 up to about 1.1 µM and inactive = higher.
quantity_name: GI50

molecule: S=C(N/N=C(/c1ccccc1)c1ccccn1)Nc1ccc(Cl)cc1
result: 0.873 µM (active)
//
molecule: COc1cc(/C=C\c2ccc(SC)cc2)cc(OC)c1OC
result: 0.0132 µM (active)
//
molecule: CN1CCN(C)C12C=c1ccccc1=CC21CC1
result: 21.9 µM (inactive)

Entry under test: Cc1cnc2c(c1)C(=O)C1=C(C2=O)C2OC(=O)CC2OC1(C)C (stereo unspecified) . Its GI50 was 0.301 µM (active)

Entry under test: `Nc1nc(SCCc2ccccc2)nc2nc3c(c(-c4ccccc4)c12)CCCC3` . Its GI50 was 8.65 µM (inactive)

Entry under test: COC(=O)CN(CC1O[C@@H]2OC(C)(C)O[C@@H]2C1N=[N+]=[N-])C(=O)OCc1ccccc1 (stereo partly specified) . Its GI50 was 16 µM (inactive)

Entry under test: `Cc1c2cccc-2c(OCCOC(=O)n2ccnc2)cc2c1[nH]c1ccccc12` . Its GI50 was 3.55 µM (inactive)

Entry under test: `N/N=C(\N)Nc1cccc2ccccc12` . Its GI50 was > 100 µM (inactive)

Entry under test: `Nc1ccc(C(=O)O)cc1` . Its GI50 was > 100 µM (inactive)

Entry under test: O=C(O)c1cccc(S(=O)(=O)NN2C(=O)CSC2c2ccc(Cl)cc2Cl)c1 (stereo unspecified) . Its GI50 was 19 µM (inactive)

Entry under test: `Nc1ccccc1OCCCOc1ccccc1N` . Its GI50 was > 100 µM (inactive)
